- Experimental Target: recombinant human HDAC2 (Homo sapiens)
- Construct: purchased BPS Biosciences
- Sequence (Q92769 whole entry): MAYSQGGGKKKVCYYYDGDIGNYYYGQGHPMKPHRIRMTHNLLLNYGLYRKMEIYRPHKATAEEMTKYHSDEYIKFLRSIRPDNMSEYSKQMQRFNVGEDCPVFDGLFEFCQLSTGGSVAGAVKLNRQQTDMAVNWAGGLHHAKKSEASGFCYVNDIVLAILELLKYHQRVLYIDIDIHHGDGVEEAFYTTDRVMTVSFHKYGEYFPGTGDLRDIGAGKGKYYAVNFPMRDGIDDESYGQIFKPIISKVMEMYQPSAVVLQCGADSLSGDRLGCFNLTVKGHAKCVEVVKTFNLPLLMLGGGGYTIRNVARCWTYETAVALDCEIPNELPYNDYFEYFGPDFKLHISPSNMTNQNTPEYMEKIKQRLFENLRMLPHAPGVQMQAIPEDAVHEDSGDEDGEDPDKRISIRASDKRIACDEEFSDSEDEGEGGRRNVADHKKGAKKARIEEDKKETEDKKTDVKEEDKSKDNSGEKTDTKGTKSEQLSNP
- Procedure Summary: Recombinant human HDAC2 enzymatic assay (Ac-peptide-AMC, fluorescence)
- Format: biochemical
- Settings: read-out: IC50 ± SD HDAC2
Property Measured: pIC50
Reminder that pIC50 is minus the log10 of a molar concentration.

Some solved cases for reference:
[[record]]
molecule = "C[C@@]12CSC(=N1)c1csc(n1)CNC(=O)C[C@@H](/C(F)=C/CCS)OC(=O)[C@H](Cc1ccccc1)NC2=O [Compound 15b]"
reported_value = 7.79

[[record]]
molecule = "CC(C)[C@@H]1NC(=O)[C@]2(C)CSC(=N2)c2csc(n2)CNC(=O)C[C@@H](/C(F)=C/CCS)OC1=O [Compound 15a]"
reported_value = 7.68


Could you now consider this next molecule?
Lookup: Please supply the value of reported pIC50 for the item CCCCCCCC(=O)SCC/C=C(\F)[C@@H]1CC(=O)NCc2nc(cs2)C2=N[C@@](C)(CS2)C(=O)N[C@@H](C(C)C)C(=O)O1 [Compound 16a]
Found: 5.74

* * *

The entries below come with measured IC50 values attached.
- Experimental Target: recombinant human HDAC8 (Homo sapiens)
- Construct: purchased BPS Biosciences
- Procedure Summary: Recombinant human HDAC8 enzymatic assay (Ac-peptide-AMC, fluorescence)
- Type: biochemical
- Settings: 10-dose IC50 mode in duplicate, threefold serial dilution; 240 min reaction; read-out: IC50 ± SD HDAC8
Give the value in µM but do not write µM after it.

[[record]]
molecule = "CC(C)[C@@H]1NC(=O)[C@]2(C)CSC(=N2)c2csc(n2)CNC(=O)C[C@@H](/C(F)=C/CCS)OC1=O [Compound 15a]"
property_measured = "IC50"
reported_value = 0.0085


Lab note: next molecule to report on.
Lookup: Check the records and state IC50 for C[C@@]12CSC(=N1)c1csc(n1)CNC(=O)C[C@@H](/C(F)=C/CCS)OC(=O)[C@H](Cc1ccccc1)NC2=O [Compound 15b]
Found: 0.0176

* * *

- Experimental Target: recombinant human HDAC3 (Homo sapiens, UniProt O15379)
- Sequence (O15379 whole entry): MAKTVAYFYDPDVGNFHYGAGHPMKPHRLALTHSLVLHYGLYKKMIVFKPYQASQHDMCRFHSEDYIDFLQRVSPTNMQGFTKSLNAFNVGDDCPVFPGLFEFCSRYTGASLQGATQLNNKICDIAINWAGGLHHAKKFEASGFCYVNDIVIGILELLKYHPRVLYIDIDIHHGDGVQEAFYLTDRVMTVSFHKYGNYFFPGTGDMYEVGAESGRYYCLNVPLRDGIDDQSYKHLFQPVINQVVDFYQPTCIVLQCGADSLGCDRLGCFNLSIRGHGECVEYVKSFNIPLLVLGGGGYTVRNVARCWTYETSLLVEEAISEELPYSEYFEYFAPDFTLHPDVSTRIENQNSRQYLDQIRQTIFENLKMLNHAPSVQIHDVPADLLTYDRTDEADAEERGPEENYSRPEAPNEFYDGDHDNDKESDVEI
- Sequence (Q9Y618 395-489 partner limits assumed): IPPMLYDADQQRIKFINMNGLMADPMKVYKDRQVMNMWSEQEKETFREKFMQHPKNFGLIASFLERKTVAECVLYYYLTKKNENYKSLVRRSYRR
- Procedure Summary: Recombinant human HDAC3 enzymatic assay (Ac-peptide-AMC, fluorescence)
- Settings: 10-dose IC50 mode in duplicate, threefold serial dilution; 60 min reaction; read-out: IC50 ± SD HDAC3
Property Measured: IC50 (µM)
Write down the numeric answer in µM and omit the unit.

Lookup: Query IC50 for C[C@@]12CSC(=N1)c1csc(n1)CNC(=O)C[C@@H](/C(F)=C/CCS)OC(=O)[C@H](Cc1ccccc1)NC2=O [Compound 15b]
Found: 0.0371

* * *

- Experimental Target: recombinant human HDAC1 (Homo sapiens, UniProt Q13547)
- Construct: purchased BPS Biosciences
- Sequence (Q13547 whole entry): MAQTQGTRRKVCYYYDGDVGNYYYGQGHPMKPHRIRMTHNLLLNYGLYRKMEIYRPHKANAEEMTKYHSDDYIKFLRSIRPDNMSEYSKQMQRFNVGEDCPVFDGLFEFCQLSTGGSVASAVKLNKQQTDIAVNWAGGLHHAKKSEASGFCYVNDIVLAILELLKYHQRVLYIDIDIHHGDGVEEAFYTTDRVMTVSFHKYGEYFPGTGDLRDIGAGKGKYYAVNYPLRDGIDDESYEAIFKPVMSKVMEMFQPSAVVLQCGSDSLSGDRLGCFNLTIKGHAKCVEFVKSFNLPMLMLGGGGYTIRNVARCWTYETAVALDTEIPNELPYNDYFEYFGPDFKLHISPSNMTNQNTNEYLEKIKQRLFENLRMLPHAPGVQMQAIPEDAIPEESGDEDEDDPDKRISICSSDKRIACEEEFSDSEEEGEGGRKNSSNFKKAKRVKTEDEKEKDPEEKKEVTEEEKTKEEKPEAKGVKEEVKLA
- Procedure Summary: Recombinant human HDAC1 enzymatic assay (Ac-peptide-AMC, fluorescence)
- Type: biochemical
Property Measured: IC50 (nM)
Entry rule: numbers only, all in nM.

Lookup: Specify IC50 for CCCCCCCC(=O)SCC/C=C(\F)[C@@H]1CC(=O)NCc2nc(cs2)C2=N[C@@](C)(CS2)C(=O)N[C@@H](C(C)C)C(=O)O1 [Compound 16a] and stop.
Found: 385

* * *

- Tested on: A549 tumor cells
- Procedure Summary: MTT assay, growth inhibition of A549 cells
- Assay type: cell-based
- Settings: Homo sapiens, A549; MTT, 72 h; seven-dose IC50 mode in duplicate, four-fold serial dilution; read-out: IC50 ± SD A549 growth inhibition
Property Measured: IC50 (µM)
Quick reminder: number only, in µM, skip the unit.

Lookup: In one line, give reported IC50 of the entry CCCCCCCC(=O)SCC/C=C(\F)[C@@H]1CC(=O)NCc2nc(cs2)C2=N[C@@](C)(CS2)C(=O)N[C@@H](C(C)C)C(=O)O1 [Compound 16a] .
Found: 0.52

* * *

- Experimental Target: recombinant human HDAC8 (Homo sapiens, UniProt Q9BY41)
- Construct: purchased BPS Biosciences
- Sequence (Q9BY41 whole entry): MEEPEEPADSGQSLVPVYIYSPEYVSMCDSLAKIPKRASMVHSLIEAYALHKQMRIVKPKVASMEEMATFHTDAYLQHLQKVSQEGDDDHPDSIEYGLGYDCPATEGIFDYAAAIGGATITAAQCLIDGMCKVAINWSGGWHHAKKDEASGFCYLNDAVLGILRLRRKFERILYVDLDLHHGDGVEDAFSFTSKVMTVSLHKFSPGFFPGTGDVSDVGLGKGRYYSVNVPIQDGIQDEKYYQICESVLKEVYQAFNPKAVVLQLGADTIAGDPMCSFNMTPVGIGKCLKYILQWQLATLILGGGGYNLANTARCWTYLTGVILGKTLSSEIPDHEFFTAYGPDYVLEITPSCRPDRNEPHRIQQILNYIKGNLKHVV
- Procedure Summary: Recombinant human HDAC8 enzymatic assay (Ac-peptide-AMC, fluorescence)
- Type: biochemical
Property Measured: pIC50
// field semantics: pIC50 = negative decimal log of concentration (mol/L)

[[record]]
compound = "CCCCCCCC(=O)SCC/C=C(\\F)[C@@H]1CC(=O)NCc2nc(cs2)C2=N[C@@](C)(CS2)C(=O)N[C@@H](C(C)C)C(=O)O1 [Compound 16a]"
reported_value = 6.59


Now look at this one.
Lookup: Identify measured pIC50 obtained with recombinant human HDAC8 (Homo sapiens, UniProt Q9BY41) for CCCCCCCC(=O)SCC/C=C/[C@@H]1CC(=O)NCc2nc(cs2)C2=N[C@@](C)(CS2)C(=O)N[C@@H](C(C)C)C(=O)O1 [Largazole, reference compound] .
Found: 6.92
